# System: PC-3
# method: NCI tumour cell line growth inhibition, 48 h
Calls of active or inactive are those of the source. Cut-off read from the data, not from the text of the source: active = GI50 up to about 1.1 µM and inactive = higher.
Respond using exactly one of the listed classes: True (active), False (inactive)

## Task Recorded test outcome, item O=C1NC(O)c2ccccc2O1 (stereo not drawn)
## Result False

## Task Recorded test outcome, item CC(=O)Nc1ncc2c(n1)-c1ccccc1OC2
## Result False

## Task Recorded test outcome, item CCc1c(C)c(C#N)c(=S)n(C2OC(CO)C(O)C(O)C2O)c1C (stereo not drawn)
## Result False

## Task Recorded test outcome, item CN(Cc1cnc2nc(N)nc(N)c2n1)c1ccc(C(=O)NC(CCC(=O)NC(P(=O)(O)O)P(=O)(O)O)C(=O)O)cc1 (stereo not drawn)
## Result False

## Task Recorded test outcome, item COC(=O)C(C)Sc1nc2cc(Cl)ccc2s1 (stereo not drawn)
## Result False

## Task Recorded test outcome, item Cc1ccc(-c2cc(-c3ccccc3)nc(N)n2)c(O)c1
## Result False

## Task Recorded test outcome, item CC1(C)CC[C@]2(C(=O)O)[C@H](O)C[C@]3(C)C(=CC[C@@H]4[C@@]5(C)CC[C@H](OC6OC(C(=O)O)C(O)C(O)C6O)C(C)(C)[C@@H]5CC[C@]43C)[C@@H]2C1 (stereo partly drawn)
## Result False

## Task Recorded test outcome, item O=C1CC(CC(O)C(O)CO)CC(=O)N1 (stereo not drawn)
## Result False

## Task Recorded test outcome, item C/C(=N\NS(=O)(=O)c1ccc(C)cc1)c1ccccn1
## Result False

## Task Recorded test outcome, item O=C1C=CC(=O)c2ncccc21
## Result False

## Task Recorded test outcome, item CCN(CC)CCCNc1nncc2c(C)c3[nH]c4ccc(OC)cc4c3cc12
## Result True

## Task Recorded test outcome, item COc1ccc(C[C@@H]2OC3(C=CC(=O)C=C3)O[C@H]2Cc2ccc(OC)cc2)cc1
## Result False

## Task Recorded test outcome, item CC1(C)COC(c2ccccc2-c2ccccc2)=N1
## Result False

## Task Recorded test outcome, item CC1CC[C@@]2(OC1)OC1CC3C4CCC5C[C@@H](OC6OC(CO)C(OC7OC(CO)C(O)C(OC8OC(CO)C(O)C(OC9OC(CO)C(O)C(O)C9O)C8O)C7OC7OC(CO)C(O)C(O)C7O)C(O)C6O)[C@H](O)C[C@]5(C)C4CC[C@]3(C)C1[C@@H]2C (stereo partly drawn)
## Result False

## Task Recorded test outcome, item O=c1[nH][nH]c(=O)n1CCCCCCn1c(=O)[nH][nH]c1=O
## Result False

## Task Recorded test outcome, item [N-]=[N+]=C1CNC(=O)NC1=O
## Result False

## Task Recorded test outcome, item OCC(O)C(O)C(O)C1SC(c2ccccc2)=NN1c1ccccc1 (stereo not drawn)
## Result False

## Task Recorded test outcome, item O=C(N=C1N(c2ccccc2)C(=O)C(=O)N1c1ccccc1)c1ccccc1
## Result False

---

# Tested on: T47D
# method: NCI tumour cell line growth inhibition, 48 h
Calls of active or inactive are those of the source. Cut-off read from the data, not from the text of the source: active = GI50 up to about 1.1 µM and inactive = higher.
recorded.endpoint: GI50

## Task What GI50 appears in the records for this compound with T47D? FC(F)(F)c1cccc(-c2nc3ccccc3c3c2[C@@]2(N4CCCC4)CCCC[C@@H]32)c1
## Result 76 µM (inactive)

## Task What GI50 appears in the records for this compound with T47D? CC(=O)c1[nH]c(NCc2ccccc2)c(C(=S)Nc2ccccc2)c1N
## Result 22 µM (inactive)

## Task What GI50 appears in the records for this compound with T47D? O=C(O)c1ccccc1CC(Cc1ccccc1)C(=O)O (stereo not given)
## Result > 100 µM (inactive)

## Task What GI50 appears in the records for this compound with T47D? Cc1ccc(NC(Nc2ccc(C)cc2C)=C(/C=C(\Cl)[N+](=O)[O-])[N+](=O)[O-])c(C)c1
## Result 1.72 µM (inactive)

## Task What GI50 appears in the records for this compound with T47D? O=C(CC(C(=O)c1ccc(F)cc1)c1ccsc1)c1cccs1 (stereo not given)
## Result 26.7 µM (inactive)

## Task What GI50 appears in the records for this compound with T47D? O=[N+]([O-])c1ccc(/C=N/CC2CCCN3CCCCC23)cc1 (stereo not given)
## Result > 100 µM (inactive)

## Task What GI50 appears in the records for this compound with T47D? COc1cccc(C23CCN(C)C(CC(O)C2)C3)c1OC (stereo not given)
## Result > 100 µM (inactive)

## Task What GI50 appears in the records for this compound with T47D? N/C(=N\n1c(=S)[nH]c2ccccc2c1=O)Nn1c(=S)[nH]c2ccccc2c1=O
## Result 23.4 µM (inactive)

## Task What GI50 appears in the records for this compound with T47D? N=c1[nH]cnc2c1nnn2C1C=CC(COS(N)(=O)=O)C1 (stereo not given)
## Result 3.94 µM (inactive)

## Task What GI50 appears in the records for this compound with T47D? COc1cc2c(cc1OCCCOc1cc3c(cc1OC)C(=O)N1CCC[C@H]1C(=O)N3)N=C[C@@H]1CCCN1C2=O
## Result 7.94 µM (inactive)

---

Please provide measured GI50 for the entries that follow.
# Test system: MDA-MB-231
# method: NCI tumour cell line growth inhibition, 48 h
Active and inactive are the calls of the source. No stated cut-off is given here; in the data, active = GI50 up to about 1.1 µM and inactive = higher.

## Task Please look up its GI50: Nc1ccc2c(c1)NCCN2
## Result > 100 µM (inactive)

## Task Please look up its GI50: O=C(Nc1ccc2[nH]c(C(=O)N3CC(CCl)c4c3cc([N+](=O)[O-])c3ccccc43)cc2c1)c1cc2ccccc2o1 (stereo not drawn)
## Result > 63 µM (inactive)

## Task Please look up its GI50: CC1=C(C#N)C23C(=O)c4ccccc4C(=O)C2=C(O)C=CC3(O)N1 (stereo not drawn)
## Result 8.83 µM (inactive)

## Task Please look up its GI50: COc1ccc(/C=N/c2ccc(-c3nc4ccccc4[nH]3)cc2)cc1OC
## Result 68.4 µM (inactive)

## Task Please look up its GI50: N=c1[nH]cnc2c1nnn2C1C=CC(COS(N)(=O)=O)C1 (stereo not drawn)
## Result 8.07 µM (inactive)

## Task Please look up its GI50: NCCN1CC2CCC(CC2)C1
## Result > 10 µM (inactive)

## Task Please look up its GI50: COc1ccc2c(c1)/c(=C/C#N)c1c3ccccc3[n+](C)n21
## Result 24 µM (inactive)

## Task Please look up its GI50: Cc1nc(C)c(N2CCN(C(=O)O)CC2)c(O)n1
## Result > 100 µM (inactive)

## Task Please look up its GI50: COC(=O)[C@@H]1C2OC(C)(C)OC2CN1C(=O)OCc1ccccc1 (stereo partly drawn)
## Result > 100 µM (inactive)

## Task Please look up its GI50: CC12CCCCC1=C(F)C(F)(F)S2 (stereo not drawn)
## Result 83.9 µM (inactive)

## Task Please look up its GI50: CSc1cc(Br)ccc1-n1c(C(=O)c2ccccc2)c(SC)n(-c2ccccc2)c1=O
## Result 39.8 µM (inactive)

## Task Please look up its GI50: Cc1ccc(-c2cc(-c3ccccc3)nc(N)n2)c(O)c1
## Result > 100 µM (inactive)

## Task Please look up its GI50: CN(Cc1cnc2c(n1)C(N)=NN(N)N2)c1ccc(C(=O)NC(CCP(=O)(O)O)C(=O)O)cc1 (stereo not drawn)
## Result > 100 µM (inactive)

## Task Please look up its GI50: OCC1OC(c2cccc3cc(O)c(O)cc23)CC1O (stereo not drawn)
## Result > 100 µM (inactive)

## Task Please look up its GI50: COc1ccc([N+](=O)[O-])c2c(NCCCN(C)C)c3ccccc3nc12
## Result 0.466 µM (active)

## Task Please look up its GI50: N#CSC/C(Cl)=C/Cl.N#CSC/C(Cl)=C\Cl
## Result > 100 µM (inactive)

## Task Please look up its GI50: O=[N+]([O-])c1ccc2c3ccccc3[s+]([O-])c2c1 (stereo not drawn)
## Result > 100 µM (inactive)

## Task Please look up its GI50: O=C1C=CC(=O)c2ncccc21
## Result 2.47 µM (inactive)

## Task Please look up its GI50: Cc1c(C)c2c(c(N)c1C#N)C(=O)N(Nc1ccccc1)C2=O
## Result 31.9 µM (inactive)

## Task Please look up its GI50: O=C1NC(=S)N/C1=C\c1ccc(Sc2ccccc2C(=O)O)s1
## Result > 100 µM (inactive)

## Task Please look up its GI50: C[C@]12CC[C@@H]3c4cc(C=O)c(OCc5ccccc5)cc4CC[C@H]3[C@@H]1CCC2OCc1ccccc1 (stereo partly drawn)
## Result > 100 µM (inactive)

## Task Please look up its GI50: O=C1NC(O)c2ccccc2O1 (stereo not drawn)
## Result > 100 µM (inactive)

## Task Please look up its GI50: c1ccc(Sc2nc(Sc3ccccc3)nc(Sc3ccccc3)n2)cc1
## Result > 100 µM (inactive)
